Origin of values: paper PMC5733704

Would you mind telling me the reported fold less potent than compound 8 (SaFabI IC50) of each entry?
# Measured on: SaFabI (Staphylococcus aureus)
# Sequence (Q6GI75 1-256): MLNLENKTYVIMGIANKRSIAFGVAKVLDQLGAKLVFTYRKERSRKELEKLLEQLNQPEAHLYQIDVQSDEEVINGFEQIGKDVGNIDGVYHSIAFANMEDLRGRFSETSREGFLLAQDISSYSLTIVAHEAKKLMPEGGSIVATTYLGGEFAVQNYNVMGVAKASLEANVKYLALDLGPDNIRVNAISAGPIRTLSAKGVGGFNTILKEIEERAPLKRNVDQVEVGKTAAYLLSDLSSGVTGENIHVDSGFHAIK
# Experimental protocol: SaFabI enzyme inhibition, NADPH fluorescence IC50 assay
# Type: biochemical
# Measurement parameters: relative to compound 8
Write down the value, and be sure its unit follows.

Answered examples (3):
Compound | Measured on | Measurement
COc1ccccc1C1CCN(C(=O)Cc2ccccc2F)C1 (stereo not shown) [Compound 3] | SaFabI (Staphylococcus aureus) | 9 fold
COc1ccc(C2CCN(C(=O)Cc3ccccc3Cl)C2)cc1 (stereo not shown) [Compound 9] | SaFabI (Staphylococcus aureus) | 25 fold
COc1ccccc1C1CCN(C(=O)Cc2c(F)cccc2F)C1 (stereo not shown) [Compound 7] | SaFabI (Staphylococcus aureus) | 11 fold

Qu. // fetch SaFabI (Staphylococcus aureus) fold less potent than compound 8 (SaFabI IC50) for COc1ccccc1C1CCN(C(=O)Cc2cccc(F)c2F)C1 (stereo not shown) [Compound 5]
Ans. 6 fold
